Test: Phase 2b steady state trough (Cmin) plasma concentration in patients
Type: in vivo, human
Conditions: human, plasma, oral; 400 mg QD, patients, D84; read-out: SS Cmin
parameterMeasured: concentration at 84 day (ng/mL)
Supply the numeric figure in ng/mL, leaving out any unit text.

**Query** Given CCCCCCCCCCCCCCCCCCCC(=O)N[C@H]1CC[C@@]2(C)[C@@H](C1)C[C@@H](O)[C@@H]1[C@@H]2C[C@H](O)[C@]2(C)[C@@H]([C@H](C)CCC(=O)O)CC[C@@H]12 [Aramchol™] , respond with its concentration at 84 day.
**Result** 2860

* * *

Assay: Phase 2b steady state trough (Cmin) plasma concentration in patients
Format: in vivo, human
Settings: human, plasma, oral
parameterMeasured: half-life

**Query** Dear colleague, please send me the reported half-life for CCCCCCCCCCCCCCCCCCCC(=O)N[C@H]1CC[C@@]2(C)[C@@H](C1)C[C@@H](O)[C@@H]1[C@@H]2C[C@H](O)[C@]2(C)[C@@H]([C@H](C)CCC(=O)O)CC[C@@H]12 [Aramchol™] when you can.
**Result** > 24 h

* * *

Experiment: Phase 1 single dose plasma exposure in healthy volunteers
Assay type: in vivo, human
Conditions: human, plasma, oral, single dose 100 mg, AUC=AUCinf
parameterMeasured: AUC (ng·h/mL)
Express it in ng·h/mL; write the number only.

**Query** Please give the documented AUC of CCCCCCCCCCCCCCCCCCCC(=O)N[C@H]1CC[C@@]2(C)[C@@H](C1)C[C@@H](O)[C@@H]1[C@@H]2C[C@H](O)[C@]2(C)[C@@H]([C@H](C)CCC(=O)O)CC[C@@H]12 [Aramchol™]
**Result** 25700

* * *

Test: Phase 1 single dose plasma exposure in healthy volunteers
Assay type: in vivo, human
Conditions: human, plasma, oral, single dose 300 mg, AUC=AUCinf
parameterMeasured: AUC

**Query** Report measured AUC; entry is `CCCCCCCCCCCCCCCCCCCC(=O)N[C@H]1CC[C@@]2(C)[C@@H](C1)C[C@@H](O)[C@@H]1[C@@H]2C[C@H](O)[C@]2(C)[C@@H]([C@H](C)CCC(=O)O)CC[C@@H]12`
**Result** 64300 ng·h/mL

* * *

Test: Phase 2b steady state trough (Cmin) plasma concentration in patients
Assay type: in vivo, human
Conditions: human, plasma, oral; 400 mg QD, patients; estimated from observed Cmin on D84*24 h
parameterMeasured: AUC (ng·h/mL)
Expressed in ng·h/mL, but write only the number.

**Query** Return the recorded AUC value; entry: CCCCCCCCCCCCCCCCCCCC(=O)N[C@H]1CC[C@@]2(C)[C@@H](C1)C[C@@H](O)[C@@H]1[C@@H]2C[C@H](O)[C@]2(C)[C@@H]([C@H](C)CCC(=O)O)CC[C@@H]12 [Aramchol™]
**Result** 68600

* * *

Test: Phase 2 ARAMCHOL 003 repeat dose plasma exposure in patients
Type: in vivo, human
Conditions: human, plasma, oral; 300 mg QD repeat dose, patients, AUC on D84 (steady-state)
parameterMeasured: AUC at 84 day (ng·h/mL)
Use ng·h/mL as the unit, but write only the number.

**Query** Name the recorded AUC at 84 day of the item CCCCCCCCCCCCCCCCCCCC(=O)N[C@H]1CC[C@@]2(C)[C@@H](C1)C[C@@H](O)[C@@H]1[C@@H]2C[C@H](O)[C@]2(C)[C@@H]([C@H](C)CCC(=O)O)CC[C@@H]12 [Aramchol™] in your answer.
**Result** 33000

* * *

Assay: Phase 2 ARAMCHOL 003 repeat dose plasma exposure in patients
Assay type: in vivo, human
Settings: human, plasma, oral; 100 mg QD repeat dose, patients, AUC on D84
parameterMeasured: AUC at 84 day (ng·h/mL)
Number in ng·h/mL, nothing else.

**Query** Item CCCCCCCCCCCCCCCCCCCC(=O)N[C@H]1CC[C@@]2(C)[C@@H](C1)C[C@@H](O)[C@@H]1[C@@H]2C[C@H](O)[C@]2(C)[C@@H]([C@H](C)CCC(=O)O)CC[C@@H]12 [Aramchol™] : provide AUC at 84 day
**Result** 19700

* * *

Assay: Phase 1 single dose plasma exposure in healthy volunteers
Format: in vivo, human
Details: human, plasma, oral, single dose 30 mg, AUC=AUCinf
parameterMeasured: AUC
Returns: string containing the numeric result and its unit.

**Query** Give AUC for the following molecule: `CCCCCCCCCCCCCCCCCCCC(=O)N[C@H]1CC[C@@]2(C)[C@@H](C1)C[C@@H](O)[C@@H]1[C@@H]2C[C@H](O)[C@]2(C)[C@@H]([C@H](C)CCC(=O)O)CC[C@@H]12`
**Result** 11.9 µg·h/mL
